- Test system: Plasmodium berghei
- test name: Screen against P. berghei liver stage (PbLuc), transformed with Luciferase, at 10uM
- Format: functional, HepG2
- measurement context: tested at 10 uM
The whole screen tested about 69,000 compounds, of which about 8,600 (12%) showed an effect of 50% or more. The list comes from a sample in which strong results are over-represented; it also holds close analogues and randomly drawn compounds.
# INHIBITION values compiled below
Answer in %, number only, no unit symbol.

compound	study target	property label	unit abbrev	number
CC(c1ccc(F)cc1)n1ccnc1-c1cc2n(n1)CCCNC2 (configuration not stated)	Plasmodium berghei	INHIBITION	%	58.3
CCC(CC)C(=O)NS(=O)(=O)c1ccc(C#N)cc1C(F)(F)F	Plasmodium berghei	INHIBITION	%	11.9
CC1CN(Cc2ccc(C#N)cc2F)CCN1Cc1nccn1C (configuration not stated)	Plasmodium berghei	INHIBITION	%	11.433
CCN(C(=O)CCc1ccc2c(c1)OCO2)C1CC(=O)NC1=O (configuration not stated)	Plasmodium berghei	INHIBITION	%	7.97
COc1ccc(CNC(=O)N2CCN(CC(O)C3CC3)CC2)cc1 (configuration not stated)	Plasmodium berghei	INHIBITION	%	35
CC(O)CNc1ccc(C#N)cc1C(F)(F)F (configuration not stated)	Plasmodium berghei	INHIBITION	%	50.8
CC/C=C(/C)C(=O)NS(=O)(=O)c1ccc(C#N)cc1C(F)(F)F	Plasmodium berghei	INHIBITION	%	-7.53
Cc1cc(O)nc(C2CCCN(CCO)C2)n1 (configuration not stated)	Plasmodium berghei	INHIBITION	%	-0.232

# input What value of measured INHIBITION is listed for CCOc1ccc(NC(=O)N(C)Cc2cnn(C)c2)c(C)c1 ?
# output 11.9

# input What value of measured INHIBITION is listed for CCn1ncc(S(=O)(=O)N2CCCC3(CC=CNC3=O)C2)c1C (configuration not stated) ?
# output 46.2

# input What value of measured INHIBITION is listed for CCCc1ccc(CN2CCC3(CCC(=O)N(C)CC3)CC2)o1 ?
# output 21.2

# input What value of measured INHIBITION is listed for COCC(O)CNc1ccc(C#N)cc1C(F)(F)F (configuration not stated) ?
# output 77.7

Recorded values, source ChEMBL document CHEMBL4513216.
